Kindly supply the reported composite z-score values for the records listed here.
Assay: binders from COS7 lysate, DM2A8 probe, primary screen, torsin A project, cell lysate, small-molecule microarray, fluorescence 635/667 (AID 1065)
Settings: higher = more signal, COS7 lysate expressing mutant human TOR1A
Keep the answer to the number alone.

Documented composite z-score of O=C1c2ccccc2[C@@]2(Cc3ccccc3N(Cc3ccccc3)C2=O)[C@H](c2ccc(CO)cc2)N1Cc1ccccc1C(F)(F)F : -1.44

Documented composite z-score of CN1C(=O)C2C=CC(C(O)c3ccc(Br)cc3)N(Nc3ccccc3)C2C1=O (configuration not stated) : 1.46

Documented composite z-score of C=CC[C@]1(C(=O)NCCN2CCOCC2)N=C(c2ccc(OCCCO)cc2)O[C@H]1c1ccccc1N=[N+]=[N-] : 0.562

Documented composite z-score of C=CC[C@@]1(C(=O)OC)N=C(c2ccc(OCCCO)cc2)O[C@@H]1c1ccccc1CN=[N+]=[N-] : 0.0269

Documented composite z-score of CO[C@H]1O[C@H](CO)[C@@H](OC(=O)Nc2ccc3c(c2)OCO3)[C@H](OC(=O)Nc2ccc3c(c2)OCO3)[C@H]1OC(=O)Nc1ccc2c(c1)OCO2 : -0.235

Documented composite z-score of COC(=O)[C@@]1(Cc2ccc(F)cc2)[C@H]2c3cc(C(=O)N4CCCC4)n(CCc4ccc(OC)c(Br)c4)c3C[C@H]2CN1C(=O)c1ccccc1 : 1.27

Documented composite z-score of COCCOC(=O)N1C(=O)[C@@]2(c3cc(C#CCC(C(=O)OC)C(=O)OC)ccc31)[C@H](c1ccccc1OCCO)N1[C@H](c3ccccc3)[C@H](c3ccccc3)OC(=O)[C@H]1[C@@H]2C(=O)Nc1nc2ccccc2s1 : 1.2
